Record form. Attribute: normalized growth. Fill in for each entry.
# measurement.protocol: chemical genetic growth profiling, strain panel (AID 1159580);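 further: tested at 20 µM; growth read once vehicle control cultures reached saturation at 30 °C; 1 = growth at the plate median or of vehicle wells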
# protocol.conditions: S. cerevisiae deletion strains, growth OD, locus YNL298W, strain CLA4, stronger effect = lower value
Screen size: about 5,500 compounds; about 2,000 (36%) were called active. About 18% were inconclusive and are not listed. This is one part of the list.
Numbers only.

compound | obs.value
Nc1ccc(S(=O)(=O)c2ccc(N)cc2)cc1 | 1

Return reported normalized growth values for all items listed beneath this line.
1. COC(=O)C[C@H]1C(C)(C)C2(O)OC34CC2C(=O)[C@]1(C)C3CC[C@]1(C)C4=CC(=O)O[C@H]1c1ccoc1 (some centres undefined)
2. N=C(N)c1ccc(OCCCCCOc2ccc(C(=N)N)cc2)cc1
3. Nc1ccc(S(=O)(=O)Nc2ccnn2-c2ccccc2)cc1

Output:
1
0.931
1.01

###

# measurement.protocol: chemical genetic growth profiling, strain panel (AID 1159580)
# protocol.conditions: S. cerevisiae deletion strains, growth OD, locus YDL040C, strain nat1, stronger effect = lower value
Out of some 5,500 compounds screened, about 2,000 (36%) were called active. Inconclusive results (about 18%) are left out. Some of the results follow.
Quick rule for you: normalized growth under 1 gets y, anything else gets n.

compound | label.value
N=C(N)c1ccc(OCCCCCOc2ccc(C(=N)N)cc2)cc1 | y

Input: API: query returns whether the compound falls strictly under 1 in normalized growth. Query: NC(Cc1c[nH]c2ccccc12)C(=O)O (stereo not given)
Output: n

###

# measurement.protocol: chemical genetic growth profiling, strain panel (AID 1159580)
# protocol.conditions: S. cerevisiae deletion strains, growth OD, locus YNL307C, strain MCK1 (second series)
Among all 5,500 compounds or so, about 2,000 (36%) were called active. Inconclusive results (about 18%) are left out. No stated cut-off is given here; in the data, active means normalized growth mostly below about 0.91 (no sharp cut-off); inconclusive means no clear call, values can overlap the other calls; inactive means mostly above about 0.92. The list shows a part of the results.
Use one of these outcomes when replying: active, inactive

Use these answered entries as a reference point.
structure.string | label.value
C=CCc1c(CCC)nc(-c2ccccn2)[nH]c1=O | inactive
Cc1ccc(S(=O)(=O)n2c(Sc3ccc([N+](=O)[O-])cc3[N+](=O)[O-])nc3cc(C)ccc32)cc1 | inactive
Clc1cc(Cl)cc(-c2nc(SCc3ccc(Cl)cc3Cl)n[nH]2)c1 | inactive
COC(=O)c1cnn(-c2c(Cl)cccc2Cl)c1C=C(C#N)C#N | inactive

Input: // return assay outcome for Cc1nc(-c2ccccn2)nc(SCc2ccccc2)c1Cl
Output: inactive

###

Would you mind telling me the reported normalized growth of each entry?
# measurement.protocol: chemical genetic growth profiling, strain panel (AID 1159580)
# protocol.conditions: S. cerevisiae deletion strains, growth OD, locus YPR119W, strain clb2, stronger effect = lower value
The campaign covered roughly 5,500 compounds. About 2,000 (36%) were called active. About 18% were inconclusive and are not listed. The list shows a part of the results.
Give bare numbers.

Here's what some known entries look like.
compound | normalized growth
COc1ccc2c3c([nH]c2c1)C(C)=NCC3 | 0.995
CC(=O)O[C@H]1CC[C@@]2(C)C(CC[C@]3(C)C2C(=O)C=C2C4[C@@H](C)[C@H](C)CC[C@]4(C(=O)O)CC[C@]23C)C1(C)C (some centres undefined) | 1.01
C[C@@H]1CC[C@H]2[C@@H](C)C(=O)O[C@@H]3O[C@@]4(C)CC[C@@H]1[C@]32OO4 | 0.927
CC(=O)OC1CC[C@@]2(C)C(CC[C@]3(C)C2CCC2C4CC(C)(C)CCC4(C(=O)O)CC[C@]23C)C1(C)C (some centres undefined) | 0.951
C[C@@H]1CC[C@H]2[C@@H](C)C(O)O[C@@H]3O[C@@]4(C)CC[C@@H]1[C@]32OO4 (some centres undefined) | 0.424
NNc1nncc2ccccc12 | 1
CCOC(=O)OC(C)OC(=O)C1N2C(=O)C(NC(=O)[C@H](N)c3ccccc3)C2SC1(C)C (some centres undefined) | 0.983
Clc1ccccc1C(c1ccccc1)(c1ccccc1)n1ccnc1 | 0.0642

Reported normalized growth of C[C@@H]1OC(O[C@H]2[C@H](O)[C@@H](O)[C@H](OC[C@H]3O[C@@H](OC(=O)[C@]45CCC(C)(C)CC4C4=CCC6[C@@]7(C)CC[C@H](OC8OC[C@H](O)[C@H](O)[C@H]8OC8O[C@@H](C)[C@H](O)[C@@H](O)[C@H]8O)[C@@](C)(CO)C7CC[C@@]6(C)[C@]4(C)CC5)[C@H](O)[C@@H](O)[C@@H]3O)O[C@@H]2CO)[C@H](O)[C@H](O)[C@H]1O (some centres undefined) : 0.991

###

# measurement.protocol: chemical genetic growth profiling, strain panel (AID 1159580);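 further: tested at 20 µM; growth read once vehicle control cultures reached saturation at 30 °C; 1 = growth at the plate median or of vehicle wells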
# protocol.conditions: S. cerevisiae deletion strains, growth OD, locus YLR342W, strain FKS1 (second series)
Among all 5,500 compounds or so, about 2,000 (36%) were called active. Inconclusive results (about 18%) are left out. Cut-off read from the data, not from the text of the source: active = normalized growth mostly below about 0.91 (no sharp cut-off); inconclusive = no clear call, values can overlap the other calls; inactive = mostly above about 0.92. The list shows a part of the results.
Outcomes you can answer with include only these: active, inactive

molecule | label.value
Cc1cn([C@H]2C[C@H](N=[N+]=[N-])[C@@H](CO)O2)c(=O)[nH]c1=O | inactive
CCOC(=O)OC(C)OC(=O)C1N2C(=O)C(NC(=O)[C@H](N)c3ccccc3)C2SC1(C)C (stereo partly specified) | inactive
C/C=C(/C)C(=O)OC1CCC2(C)C3CCC4C5(O)CC(O)C6(O)C(CN7CC(C)CCC7C6(C)O)C5(O)CC42OC13O (stereo unspecified) | active

# ---- query molecule ----
Input: Answer briefly: the call reported for Cc1cc(O)cc(=O)o1 in this assay.
Output: inactive

###

# measurement.protocol: chemical genetic growth profiling, strain panel (AID 1159580);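 further: tested at 20 µM; growth read once vehicle control cultures reached saturation at 30 °C; 1 = growth at the plate median or of vehicle wells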
# protocol.conditions: S. cerevisiae deletion strains, growth OD, locus YOR265W, strain rbl2, stronger effect = lower value
Screen size: about 5,500 compounds; about 2,000 (36%) were called active. Roughly 18% stayed inconclusive and do not appear here. The list shows a part of the results.
Answer each item with its documented normalized growth.
Numbers only.

Past entries and their recorded results:
compound | normalized growth
COC(=O)C[C@H]1C(C)(C)C(=O)[C@@H]2CC3C4=CC(=O)O[C@@H](c5ccoc5)[C@]4(C)CCC3[C@@]1(C)C2=O (some centres not stated) | 0.986
CC(C)=CCCC1(C)C=Cc2c(O)c3c(c(CC=C(C)C)c2O1)OC12C(=CC4CC1C(C)(C)OC2(C/C=C(/C)C(=O)O)C4=O)C3=O (configuration not stated) | 0.886
Cc1cc(O)ccc1Cl | 1.01
CC1(C)CC(O)C2(C)CCC3(C)C(=CCC4C5(C)CCC(O)C(C)(CO)C5CCC43C)C2C1 (configuration not stated) | 1.03
CC(C)=CCCC1(C)C=Cc2c(O)c3c(c(CC=C(C)C)c2O1)OC12C(=CCCC1C(C)(C)O[C@@]2(C/C=C(\C)C(=O)O)C(=O)O)C3=O (some centres not stated) | 0.945
NC12CC3CC(CC(C3)C1)C2 | 1.01
CCCCCCCCCCCC[C@H](C(=O)O)[C@@H](C)C(=O)O | 0.985
C[C@@H]1OC(O[C@H]2C(O[C@H]3CC[C@@]4(C)C(CC[C@]5(C)C4CC=C4C6CC(C)(C)CC[C@]6(C(=O)O)CC[C@]45C)[C@]3(C)CO)OC[C@H](O)[C@@H]2O)[C@H](O)[C@H](O)[C@H]1O (some centres not stated) | 0.0556
COC1=C[C@@H]2[C@@H]3Cc4ccc(OC)c(O)c4[C@]2(CCN3C)CC1=O | 1.01
Clc1ccccc1C(c1ccccc1)(c1ccccc1)n1ccnc1 | 0.0588

For each entry beneath this line, provide reported normalized growth.
1. COc1cc(C(=O)O[C@H]2CC[C@@]3(C)[C@@H]4CC[C@H]5[C@]6(O)C[C@H](O)[C@@]7(O)[C@@H](CN8C[C@@H](C)CC[C@H]8[C@@]7(C)O)[C@]6(O)C[C@@]53O[C@]24O)cc(OC)c1OC
2. Nc1ccc(S(=O)(=O)c2ccc(N)cc2)cc1
3. Nc1ccc(S(=O)(=O)Nc2cnc3ccccc3n2)cc1
4. O=c1[nH]cc(F)c(=O)[nH]1
5. OC(CCN1CCCCC1)(c1ccccc1)C1CC2C=CC1C2 (configuration not stated)
6. FC(F)(F)c1ccccc1-n1ccnc1
7. NNc1nncc2ccccc12
8. Nc1c2ccccc2nc2ccccc12

Output:
0.983
0.987
1.01
0.654
1.01
0.991
0.989
0.706

###

# measurement.protocol: chemical genetic growth profiling, strain panel (AID 1159580);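 further: tested at 20 µM; growth read once vehicle control cultures reached saturation at 30 °C; 1 = growth at the plate median or of vehicle wells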
# protocol.conditions: S. cerevisiae deletion strains, growth OD, locus YPR167C, strain met16, stronger effect = lower value
Out of some 5,500 compounds screened, about 2,000 (36%) were called active. Roughly 18% stayed inconclusive and do not appear here. The list shows a part of the results. Where a SMILES comes first, the peptide text is derived from it. Bridges are numbered along the chain shown (N, C = ends). [ ]: non-standard residue; d: D form. The star is where a group is joined. ξ: configuration not given here. ξDab(CH2SO3H) = NC(CCNCS(=O)(=O)O)C(=O)O; Heptanoyl(6-Me) = CC(C)CCCCC(=O)*; Dab = NCC[CH](N)C(=O)O; For = O=C*
Quick rule for you: normalized growth under 1 gets met, anything else gets not met.

compound | label.value
CCC(C)C1NC(=O)C(CCNCS(=O)(=O)O)NC(=O)C(NC(=O)C(CCNCS(=O)(=O)O)NC(=O)C(NC(=O)C(CCNCS(=O)(=O)O)NC(=O)CCCCC(C)C)C(C)O)CCNC(=O)C(C(C)O)NC(=O)C(CCNCS(=O)(=O)O)NC(=O)C(CCNCS(=O)(=O)O)NC(=O)C(C(C)CC)NC1=O (configuration not stated) ({Heptanoyl(6-Me)}-[ξDab(CH2SO3H)]T[ξDab(CH2SO3H)][Dab][ξDab(CH2SO3H)]II[ξDab(CH2SO3H)][ξDab(CH2SO3H)]T; lactam 4-C; configuration not given here) | met
C/C=C(/C)C(=O)OC1CCC2(C)C3CCC4C5(O)CC(O)C6(O)C(CN7CC(C)CCC7C6(C)O)C5(O)CC42OC13O (configuration not stated) | met
CC(C)=CCCC1(C)C=Cc2c(O)c3c(c(CC=C(C)C)c2O1)OC12C(=CCCC1C(C)(C)O[C@@]2(C/C=C(\C)C(=O)O)C(=O)O)C3=O (some centres not stated) | met

Input: Find out if reported normalized growth for CC(C)(Oc1ccc(CCNC(=O)c2ccc(Cl)cc2)cc1)C(=O)O is less than 1
Output: not met

Input: Here's an entry: CC(C)=CCCC1(C)C=Cc2c(O)c3c(c(CC=C(C)C)c2O1)OC12C(=CC4CC1C(C)(C)OC2(C/C=C(\C)C(N)=O)C4=O)C3=O (configuration not stated) . Is its normalized growth below 1?
Output: met

Input: Is the reported normalized growth for O=c1oc2cc(O)ccc2s1 strictly below 1?
Output: met

Input: Field: below-cutoff. Rule: recorded normalized growth strictly less than 1. Subject: N[C@H](C(=O)O)[C@@H]1CC(Cl)=NO1
Output: met

Input: Below 1 on normalized growth? Entry CC(C)=CCCC1(C)C=Cc2c(O)c3c(c(CC=C(C)C)c2O1)OC12C(=CC4CC1C(C)(C)OC2(C/C=C(/C)C(=O)O)C4=O)C3=O (configuration not stated)
Output: met

Input: Quick check: normalized growth of CSCCC(NC=O)C(=O)NC(Cc1ccccc1)C(=O)O (stereo not drawn) (For-Met-Phe-OH; configuration not given here) under 1?
Output: not met
